Test: Plasma pharmacokinetics in patients (HPLC-MS/MS, noncompartmental)
Conditions: human, plasma, oral, 30 mg
reportedProperty: CL/F (mL/min)
Give bare numbers, in mL/min.

CL/F for CN(C)C/C=C/C(=O)Nc1cc2c(Nc3ccc(F)c(Cl)c3)ncnc2cc1O[C@H]1CCOC1 is 383

###

Assay: Plasma pharmacokinetics in patients (HPLC-MS/MS, noncompartmental)
Conditions: human, plasma, oral, 100 mg
reportedProperty: Vd/F (L)
One number for each entry, in L.

Vd/F for CN(C)C/C=C/C(=O)Nc1cc2c(Nc3ccc(F)c(Cl)c3)ncnc2cc1O[C@H]1CCOC1 is 1500

###

Assay: Plasma pharmacokinetics in patients (HPLC-MS/MS, noncompartmental)
Settings: human, plasma, oral, 45 mg
reportedProperty: Vd/F (L)
Numbers only, in L.

Vd/F for CN(C)C/C=C/C(=O)Nc1cc2c(Nc3ccc(F)c(Cl)c3)ncnc2cc1O[C@H]1CCOC1 is 3350

###

Experiment: Plasma pharmacokinetics in patients (HPLC-MS/MS, noncompartmental)
Conditions: human, plasma, oral, 100 mg
reportedProperty: Cmax (ng/mL)
One number for each entry, in ng/mL.

Cmax for CN(C)C/C=C/C(=O)Nc1cc2c(Nc3ccc(F)c(Cl)c3)ncnc2cc1O[C@H]1CCOC1 is 234

###

Test: Plasma pharmacokinetics in patients (HPLC-MS/MS, noncompartmental)
Conditions: human, plasma, oral, 85 mg
reportedProperty: Vd/F (L)
One number for each entry, in L.

Vd/F for CN(C)C/C=C/C(=O)Nc1cc2c(Nc3ccc(F)c(Cl)c3)ncnc2cc1O[C@H]1CCOC1 is 1610

###

Assay: Plasma pharmacokinetics in patients (HPLC-MS/MS, noncompartmental)
Details: human, plasma, oral, 20 mg
reportedProperty: AUC(0-t) (µg·h/mL)
Numbers only, in µg·h/mL.

AUC(0-t) for CN(C)C/C=C/C(=O)Nc1cc2c(Nc3ccc(F)c(Cl)c3)ncnc2cc1O[C@H]1CCOC1 is 0.241

###

Assay: Plasma pharmacokinetics in patients (HPLC-MS/MS, noncompartmental)
Conditions: human, plasma, oral, 20 mg
reportedProperty: half-life (h)
Give bare numbers, in h.

half-life for CN(C)C/C=C/C(=O)Nc1cc2c(Nc3ccc(F)c(Cl)c3)ncnc2cc1O[C@H]1CCOC1 [BIBW 2992] is 39.7

###

Assay: Plasma pharmacokinetics in patients (HPLC-MS/MS, noncompartmental)
Conditions: human, plasma, oral, 10 mg
reportedProperty: Cmax (ng/mL)
Numbers only, in ng/mL.

Cmax for CN(C)C/C=C/C(=O)Nc1cc2c(Nc3ccc(F)c(Cl)c3)ncnc2cc1O[C@H]1CCOC1 [BIBW 2992] is 14.1

###

Experiment: Plasma pharmacokinetics in patients (HPLC-MS/MS, noncompartmental)
Settings: human, plasma, oral, 10 mg
reportedProperty: AUC(0-t)
Value and unit, in that order.

AUC(0-t) for CN(C)C/C=C/C(=O)Nc1cc2c(Nc3ccc(F)c(Cl)c3)ncnc2cc1O[C@H]1CCOC1 is 199 ng·h/mL

###

Assay: Plasma pharmacokinetics in patients (HPLC-MS/MS, noncompartmental)
Conditions: human, plasma, oral, 85 mg
reportedProperty: Cmax (ng/mL)
Answers are plain numbers, in ng/mL.

Cmax for CN(C)C/C=C/C(=O)Nc1cc2c(Nc3ccc(F)c(Cl)c3)ncnc2cc1O[C@H]1CCOC1 [BIBW 2992] is 163

###

Assay: Plasma pharmacokinetics in patients (HPLC-MS/MS, noncompartmental)
Settings: human, plasma, oral, 100 mg
reportedProperty: AUC(0-t) (ng·h/mL)
Numbers only, in ng·h/mL.

AUC(0-t) for CN(C)C/C=C/C(=O)Nc1cc2c(Nc3ccc(F)c(Cl)c3)ncnc2cc1O[C@H]1CCOC1 is 2750

###

Assay: Plasma pharmacokinetics in patients (HPLC-MS/MS, noncompartmental)
Conditions: human, plasma, oral
reportedProperty: half-life

half-life for CN(C)C/C=C/C(=O)Nc1cc2c(Nc3ccc(F)c(Cl)c3)ncnc2cc1O[C@H]1CCOC1 is 28 to 43 h

###

Test: Plasma pharmacokinetics in patients (HPLC-MS/MS, noncompartmental)
Settings: human, plasma, oral, 70 mg
reportedProperty: half-life (h)
Answers are plain numbers, in h.

half-life for CN(C)C/C=C/C(=O)Nc1cc2c(Nc3ccc(F)c(Cl)c3)ncnc2cc1O[C@H]1CCOC1 [BIBW 2992] is 39.6

###

Test: Plasma pharmacokinetics in patients (HPLC-MS/MS, noncompartmental)
Settings: human, plasma, oral, 20 mg
reportedProperty: Vd/F (L)
Give bare numbers, in L.

Vd/F for CN(C)C/C=C/C(=O)Nc1cc2c(Nc3ccc(F)c(Cl)c3)ncnc2cc1O[C@H]1CCOC1 is 4760

###

Test: Plasma pharmacokinetics in patients (HPLC-MS/MS, noncompartmental)
Conditions: human, plasma, oral, 70 mg
reportedProperty: CL/F (mL/min)
Numbers only, in mL/min.

CL/F for CN(C)C/C=C/C(=O)Nc1cc2c(Nc3ccc(F)c(Cl)c3)ncnc2cc1O[C@H]1CCOC1 is 445

###

Assay: Plasma pharmacokinetics in patients (HPLC-MS/MS, noncompartmental)
Conditions: human, plasma, oral, 20 mg
reportedProperty: Cmax
Value and unit, in that order.

Cmax for CN(C)C/C=C/C(=O)Nc1cc2c(Nc3ccc(F)c(Cl)c3)ncnc2cc1O[C@H]1CCOC1 is 16.2 ng/mL

###

Assay: Plasma pharmacokinetics in patients (HPLC-MS/MS, noncompartmental)
Conditions: human, plasma, oral, 45 mg
reportedProperty: CL/F (mL/min)
Answers are plain numbers, in mL/min.

CL/F for CN(C)C/C=C/C(=O)Nc1cc2c(Nc3ccc(F)c(Cl)c3)ncnc2cc1O[C@H]1CCOC1 is 893

###

Assay: Plasma pharmacokinetics in patients (HPLC-MS/MS, noncompartmental)
Settings: human, plasma, oral, 85 mg
reportedProperty: CL/F

CL/F for CN(C)C/C=C/C(=O)Nc1cc2c(Nc3ccc(F)c(Cl)c3)ncnc2cc1O[C@H]1CCOC1 [BIBW 2992] is 604 mL/min

###

Assay: Plasma pharmacokinetics in patients (HPLC-MS/MS, noncompartmental)
Conditions: human, plasma, oral, 85 mg
reportedProperty: half-life (h)
Numbers only, in h.

half-life for CN(C)C/C=C/C(=O)Nc1cc2c(Nc3ccc(F)c(Cl)c3)ncnc2cc1O[C@H]1CCOC1 is 30.8

###

Assay: Plasma pharmacokinetics in patients (HPLC-MS/MS, noncompartmental)
Settings: human, plasma, oral, 20 mg
reportedProperty: Tmax
Value and unit, in that order.

Tmax for CN(C)C/C=C/C(=O)Nc1cc2c(Nc3ccc(F)c(Cl)c3)ncnc2cc1O[C@H]1CCOC1 [BIBW 2992] is 4 h

###

Assay: Plasma pharmacokinetics in patients (HPLC-MS/MS, noncompartmental)
Settings: human, plasma, oral, 100 mg
reportedProperty: Tmax (h)
One number for each entry, in h.

Tmax for CN(C)C/C=C/C(=O)Nc1cc2c(Nc3ccc(F)c(Cl)c3)ncnc2cc1O[C@H]1CCOC1 is 1

###

Assay: Plasma pharmacokinetics in patients (HPLC-MS/MS, noncompartmental)
Conditions: human, plasma, oral, 30 mg
reportedProperty: AUC(0-t) (ng·h/mL)
One number for each entry, in ng·h/mL.

AUC(0-t) for CN(C)C/C=C/C(=O)Nc1cc2c(Nc3ccc(F)c(Cl)c3)ncnc2cc1O[C@H]1CCOC1 is 1310

###

Test: Plasma pharmacokinetics in patients (HPLC-MS/MS, noncompartmental)
Settings: human, plasma, oral, 85 mg
reportedProperty: AUC(0-t) (ng·h/mL)
Numbers only, in ng·h/mL.

AUC(0-t) for CN(C)C/C=C/C(=O)Nc1cc2c(Nc3ccc(F)c(Cl)c3)ncnc2cc1O[C@H]1CCOC1 is 2340

###

Assay: Plasma pharmacokinetics in patients (HPLC-MS/MS, noncompartmental)
Conditions: human, plasma, oral, 45 mg
reportedProperty: Cmax (ng/mL)
One number for each entry, in ng/mL.

Cmax for CN(C)C/C=C/C(=O)Nc1cc2c(Nc3ccc(F)c(Cl)c3)ncnc2cc1O[C@H]1CCOC1 is 68.4

###

Assay: Plasma pharmacokinetics in patients (HPLC-MS/MS, noncompartmental)
Conditions: human, plasma, oral, 45 mg
reportedProperty: Tmax (h)
Answers are plain numbers, in h.

Tmax for CN(C)C/C=C/C(=O)Nc1cc2c(Nc3ccc(F)c(Cl)c3)ncnc2cc1O[C@H]1CCOC1 is 3

###

Assay: Plasma pharmacokinetics in patients (HPLC-MS/MS, noncompartmental)
Conditions: human, plasma, oral, 45 mg
reportedProperty: half-life (h)
Numbers only, in h.

half-life for CN(C)C/C=C/C(=O)Nc1cc2c(Nc3ccc(F)c(Cl)c3)ncnc2cc1O[C@H]1CCOC1 is 43.4

###

Assay: Plasma pharmacokinetics in patients (HPLC-MS/MS, noncompartmental)
Settings: human, plasma, oral, 30 mg
reportedProperty: Tmax (min)
One number for each entry, in min.

Tmax for CN(C)C/C=C/C(=O)Nc1cc2c(Nc3ccc(F)c(Cl)c3)ncnc2cc1O[C@H]1CCOC1 is 57

###

Assay: Plasma pharmacokinetics in patients (HPLC-MS/MS, noncompartmental)
Conditions: human, plasma, oral, 10 mg
reportedProperty: Vd/F (L)
Give bare numbers, in L.

Vd/F for CN(C)C/C=C/C(=O)Nc1cc2c(Nc3ccc(F)c(Cl)c3)ncnc2cc1O[C@H]1CCOC1 is 2610
